Provide the recorded Ki for the entries that follow.
Write down the numeric answer in nM and omit the unit.

Task: Missing value: Ki, Mu-type opioid receptor (Homo sapiens, UniProt P35372), entry CCCCC(=O)O[C@H]1C[C@@H](C(=O)OC)[C@]2(C)CCC3C(=O)O[C@H](c4ccoc4)C[C@]3(C)[C@H]2C1=O (single isomer, unassigned) . Fill in?
Output: 310

Task: What Ki appears in the records for this compound with Mu-type opioid receptor (Homo sapiens, UniProt P35372)? COC(=O)[C@@H]1C[C@H](OC(=O)Cc2ccccc2)C(=O)[C@H]2[C@@]1(C)CCC1C(=O)O[C@H](c3ccoc3)C[C@@]12C (single isomer, unassigned)
Sequence (P35372 whole entry): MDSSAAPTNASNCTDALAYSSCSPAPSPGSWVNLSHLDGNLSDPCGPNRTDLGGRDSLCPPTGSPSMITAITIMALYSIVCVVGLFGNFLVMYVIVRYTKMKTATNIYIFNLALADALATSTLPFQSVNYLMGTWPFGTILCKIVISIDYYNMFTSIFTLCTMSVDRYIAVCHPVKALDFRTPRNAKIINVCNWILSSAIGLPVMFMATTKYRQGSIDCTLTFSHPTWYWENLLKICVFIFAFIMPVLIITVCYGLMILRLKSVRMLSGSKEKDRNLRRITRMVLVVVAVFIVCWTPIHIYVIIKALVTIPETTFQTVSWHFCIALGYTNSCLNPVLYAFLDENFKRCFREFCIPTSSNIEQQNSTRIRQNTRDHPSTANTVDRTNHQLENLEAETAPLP
Output: 1090

Task: Query the reported Ki for Mu-type opioid receptor (Homo sapiens, UniProt P35372); item: COC(=O)[C@@H]1C[C@H](OC(=O)c2ccccc2Br)C(=O)[C@H]2[C@@]1(C)CCC1C(=O)O[C@H](c3ccoc3)C[C@@]12C (single isomer, unassigned)
Output: 110

* * *

# Measured On: Kappa-type opioid receptor (Homo sapiens, UniProt P41145)
# Sequence (P41145 whole entry): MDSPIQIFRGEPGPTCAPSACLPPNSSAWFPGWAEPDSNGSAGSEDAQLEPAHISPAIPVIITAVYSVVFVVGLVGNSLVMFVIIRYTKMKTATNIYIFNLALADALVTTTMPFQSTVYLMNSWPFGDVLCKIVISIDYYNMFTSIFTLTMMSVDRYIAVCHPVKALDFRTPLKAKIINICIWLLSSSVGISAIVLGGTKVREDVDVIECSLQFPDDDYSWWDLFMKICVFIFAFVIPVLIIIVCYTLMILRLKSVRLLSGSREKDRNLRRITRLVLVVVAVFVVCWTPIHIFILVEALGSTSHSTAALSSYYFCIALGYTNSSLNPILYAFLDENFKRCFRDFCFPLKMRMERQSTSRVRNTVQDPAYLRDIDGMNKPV
# Method: Displacement of [125]OXY from kappa opioid receptor
Exercise: state measured pKi for each of the compounds provided.
The value called pKi is obtained by taking minus log10 of the concentration in mol/L.

Task: State the recorded pKi for this entry: COC(=O)[C@@H]1C[C@H](OC(=O)Cc2ccccc2)C(=O)[C@H]2[C@@]1(C)CCC1C(=O)O[C@H](c3ccoc3)C[C@@]12C (single isomer, unassigned)
Output: 6.54

Task: Item COC(=O)[C@@H]1C[C@H](OC(=O)c2cccs2)C(=O)[C@H]2[C@@]1(C)CC[C@H]1C(=O)O[C@H](c3ccoc3)C[C@]21C has what recorded pKi?
Output: 6.59

Task: Please report the recorded pKi for COC(=O)[C@@H]1C[C@H](OC(=O)c2ccccc2Br)C(=O)[C@H]2[C@@]1(C)CCC1C(=O)O[C@H](c3ccoc3)C[C@@]12C (single isomer, unassigned) .
Output: 7.05

Task: Returns the measured pKi for the input compound. Input: CCCCC(=O)O[C@H]1C[C@@H](C(=O)OC)[C@]2(C)CCC3C(=O)O[C@H](c4ccoc4)C[C@]3(C)[C@H]2C1=O (single isomer, unassigned)
Output: 7.82
